System: colorectal tissue transcripts
Assay: SAGE of normal, adenoma and cancer colorectal tissue (transcript tag counts)
Set-up: species or system human
Conditions: SAGE library AD2
Procedure: In an effort to identify potential molecular markers of early colorectal tumors, we have here analyzed gene expression in benign and malignant colorectal tumors in an unbiased and comprehensive fashion. […] The abundance of each tag provides a quantitative measure of the transcript level present within the mRNA population studied. […] For the current study, SAGE libraries derived from two samples of normal colonic epithelium, two colorectal adenomas, and two colorectal cancers were analyzed. […]
readout-name: AD2 (SAGE tag count)
Answers are plain numbers.

Some sequences with known AD2 (SAGE tag count) results, for comparison:
INSERT INTO measurements (chain, system_name, reading) VALUES
  ('ATGCGGGAGA (chemistry not fully specified)', 'colorectal tissue transcripts', 22),
  ('GCAGGGCCTC (chemistry not fully specified)', 'colorectal tissue transcripts', 69),
  ('GCCGGGTGGG (chemistry not fully specified)', 'colorectal tissue transcripts', 24),
  ('CGGACTCACT (chemistry not fully specified)', 'colorectal tissue transcripts', 14),
  ('GGTGAAGAGG (chemistry not fully specified)', 'colorectal tissue transcripts', 3),
  ('AGGCCAAGGG (chemistry not fully specified)', 'colorectal tissue transcripts', 1),
  ('GCACCCTTTC (chemistry not fully specified)', 'colorectal tissue transcripts', 0),
  ('GCACCTGTCG (chemistry not fully specified)', 'colorectal tissue transcripts', 0),
  ('CCCCCGCGGA (chemistry not fully specified)', 'colorectal tissue transcripts', 11),
  ('GGGACGAGTG (chemistry not fully specified)', 'colorectal tissue transcripts', 3);

Let's switch to this sequence now.
Query: AD2 (SAGE tag count); subject: ATATAATCTG (chemistry not fully specified) 4

###

system: colorectal tissue transcripts; assay: SAGE of normal, adenoma and cancer colorectal tissue (transcript tag counts); parameters: species or system human; settings: SAGE library AD2
For each of the sequences below, state its AD2 (SAGE tag count).
Give bare numbers.

INSERT INTO assay_data (chain, reading) VALUES
  ('ATGATGGCAC (chemistry not fully specified; the letters are possibly those of the target site)', 0),
  ('CAAGAGTTTC (chemistry not fully specified)', 0),
  ('GGAAGAGCAC (chemistry not fully specified)', 1),
  ('GCCTGGCCAT (chemistry not fully specified)', 6),
  ('AAATCTGGCA (chemistry not fully specified)', 4);

Hi, could you look up AD2 (SAGE tag count) for each item in my list?
1. GGGAAGCAGA (chemistry not fully specified)
2. CCATTCCACT (chemistry not fully specified)
3. GTGCCTGAGA (chemistry not fully specified)
4. CTGAACCTCC (chemistry not fully specified)
5. ATGACGCTCA (chemistry not fully specified)
6. ATTGGAGTGC (chemistry not fully specified)
7. GTCATCACCA (chemistry not fully specified; the letters are possibly those of the target site)
8. ATCGTGGCGG (chemistry not fully specified)

4
0
6
0
5
36
0
25

Would you mind listing AD2 (SAGE tag count) for each of the following sequences?
1. AGTGGGCTCA (chemistry not fully specified)
2. CGAGGGGCCA (chemistry not fully specified)
3. GGGCGCTGTG (chemistry not fully specified)
4. GACCAGCCCA (chemistry not fully specified)
5. GCAGGAGGTG (chemistry not fully specified; the letters are possibly those of the target site)

[1, 18, 6, 2, 0]

Return reported AD2 (SAGE tag count) values for all items listed beneath this line.
1. ACACCCATCA (chemistry not fully specified)
2. CCGGCTTGAG (chemistry not fully specified)
3. GGCTGGGCCT (chemistry not fully specified)

[0, 0, 5]
